Target: human C5 (human, UniProt P01031 19-1676)
Assay: cell-based or functional assay
Measure name: Human CP % Max Inhibition, hemolysis assay, NHS (%)
Report the figure in % without appending any unit label.

Lookup: If you can, please state the reported Human CP % Max Inhibition, hemolysis assay, NHS value of H4H11686N (antibody, human IgG4, V domains shown, tested with H4H prefix (human IgG4 Fc with S108P hinge mutation); also called H2M11686N) VH: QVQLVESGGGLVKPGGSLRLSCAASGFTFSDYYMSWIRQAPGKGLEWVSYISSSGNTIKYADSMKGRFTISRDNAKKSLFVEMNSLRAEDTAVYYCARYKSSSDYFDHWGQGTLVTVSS VL: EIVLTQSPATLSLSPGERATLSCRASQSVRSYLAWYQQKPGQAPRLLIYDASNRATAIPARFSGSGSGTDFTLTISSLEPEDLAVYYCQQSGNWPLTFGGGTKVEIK .
Found: 97.4

Lookup: Next up: H4H12163P (antibody, human IgG4, V domains shown, H4H: human IgG4 Fc with S108P hinge mutation) VH: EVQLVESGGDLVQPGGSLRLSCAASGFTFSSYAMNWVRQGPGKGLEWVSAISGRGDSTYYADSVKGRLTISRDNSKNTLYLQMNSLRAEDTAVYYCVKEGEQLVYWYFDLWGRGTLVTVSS VL: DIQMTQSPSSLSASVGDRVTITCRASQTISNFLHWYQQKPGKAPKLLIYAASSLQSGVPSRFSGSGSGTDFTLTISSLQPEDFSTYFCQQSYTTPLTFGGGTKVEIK
Found: 96.1

Lookup: Consider next the binder H4H12164P (antibody, human IgG4, V domains shown, H4H: human IgG4 Fc with S108P hinge mutation) VH: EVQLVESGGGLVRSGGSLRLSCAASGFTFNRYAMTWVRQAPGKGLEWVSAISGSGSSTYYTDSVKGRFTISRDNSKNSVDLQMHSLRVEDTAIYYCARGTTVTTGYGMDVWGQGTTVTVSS VL: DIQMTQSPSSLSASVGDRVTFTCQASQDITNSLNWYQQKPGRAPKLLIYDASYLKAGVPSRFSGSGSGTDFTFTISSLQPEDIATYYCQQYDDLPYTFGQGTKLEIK in the same way.
Found: 95.9

The reported measurements were obtained from patent US20170355757A1.
